# target or system: OR2W1 (Homo sapiens, UniProt Q9Y3N9, D296N)
# Construct: full coding region from human genomic DNA in pFN210A, N-terminal IL-6-HaloTag; HEK-293 with RTP1S, G-alpha-olf, G-gamma-13, GloSensor-22F
# Sequence (Q9Y3N9 whole entry D296N): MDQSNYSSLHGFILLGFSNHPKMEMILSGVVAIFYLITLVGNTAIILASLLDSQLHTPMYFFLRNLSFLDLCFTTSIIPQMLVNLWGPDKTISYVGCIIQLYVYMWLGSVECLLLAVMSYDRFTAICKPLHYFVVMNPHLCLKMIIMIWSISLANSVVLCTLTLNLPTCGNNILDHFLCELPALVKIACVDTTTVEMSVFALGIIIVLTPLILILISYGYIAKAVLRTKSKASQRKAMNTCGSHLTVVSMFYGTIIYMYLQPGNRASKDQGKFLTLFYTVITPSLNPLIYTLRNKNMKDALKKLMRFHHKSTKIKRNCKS
# protocol details: GloSensor cAMP luminescence, HEK-293
# Format: cell-based
# measurement parameters: read-out: Z4-11Al EC50 [μmol/L] ^a
measured endpoint: pEC50
pEC50 here: minus log base 10 of the concentration, concentration in moles per litre.

Item under review: CCCCCC/C=C\CCC=O [Z4-11Al, (Z)-4-undecenal] . Reported pEC50?
4.39

====

# target or system: OR2W1 (Homo sapiens, UniProt Q9Y3N9, D296N)
# Construct: full coding region from human genomic DNA in pFN210A, N-terminal IL-6-HaloTag; HEK-293 with RTP1S, G-alpha-olf, G-gamma-13, GloSensor-22F
# protocol details: GloSensor cAMP luminescence, HEK-293
# Format: cell-based
# measurement parameters: read-out: Z4-9Al
measured endpoint: pEC50
Note: pEC50 values are expressed as the negative base-10 logarithm of concentration in M.

Give the measured pEC50 of CCCC/C=C\CCC=O [Z4-9Al, (Z)-4-nonenal] .
4.04
